// reported log10 of koff per item
Molecular target: T1, human C1s (human, UniProt P09871 16-688)
T1 construct: also called hC1s; serum-derived human C1s (CompTech)
T1 sequence: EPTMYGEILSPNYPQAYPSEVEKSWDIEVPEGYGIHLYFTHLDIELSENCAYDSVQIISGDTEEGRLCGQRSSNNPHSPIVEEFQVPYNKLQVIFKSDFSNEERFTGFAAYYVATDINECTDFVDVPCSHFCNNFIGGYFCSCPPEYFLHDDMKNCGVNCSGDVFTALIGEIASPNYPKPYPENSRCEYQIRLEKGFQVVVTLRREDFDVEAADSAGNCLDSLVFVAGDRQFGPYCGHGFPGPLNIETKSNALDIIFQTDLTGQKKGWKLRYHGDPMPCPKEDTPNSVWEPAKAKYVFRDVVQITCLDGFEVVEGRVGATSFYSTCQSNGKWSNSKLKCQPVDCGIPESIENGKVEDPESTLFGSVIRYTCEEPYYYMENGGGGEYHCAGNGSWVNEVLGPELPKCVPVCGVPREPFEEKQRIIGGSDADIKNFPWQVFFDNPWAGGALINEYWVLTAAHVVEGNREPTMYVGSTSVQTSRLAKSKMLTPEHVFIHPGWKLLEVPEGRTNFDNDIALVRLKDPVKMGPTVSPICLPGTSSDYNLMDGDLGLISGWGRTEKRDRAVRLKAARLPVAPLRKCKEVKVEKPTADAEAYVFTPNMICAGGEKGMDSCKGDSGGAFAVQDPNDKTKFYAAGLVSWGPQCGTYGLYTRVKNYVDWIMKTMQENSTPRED
Assay: SPR, Ab captured; pH 7.4, 1.2 mM Ca
TEST READOUT: log10 of koff (log10 of the value in s⁻¹)

[[record]]
binder = "C1_IPN92H0079-SG4GK/IPN93L0024-SK1 (antibody, human IgG4 S228P, kappa, name in Kabat numbering, V domains shown, also called IPN92H0079/IPN93L0024) VH: EVMLVESGGGLVKPGGSLRLSCAASGFTFSNKAMSWVRQAPGKGLEWVATISSGGSHTYYLDSVKGRFTISRDNSKDTLYLQMNSLRAEDTALYYCARLFTGHAMDYWGQGTLVTVSS VL: QIVLTQSPATLSLSPGERATLSCTASSSVSSSYLHWYQQKPGKAPKLWIYSTSNLASGVPSRFSGSGSGTDYTLTISSLQPEDFATYYCHQYYRLHPITFGQGTKLEIKR"
test_readout = "log10 of koff"
quantitative_readout = -2.90

[[record]]
binder = "C1_IPN92H0253-SG4GK/IPN93L0024-SK1 (antibody, human IgG4 S228P, kappa, name in Kabat numbering, V domains shown, also called IPN92H0253/IPN93L0024) VH: EVMLVESGGGLVKPGGSLRLSCAASGFTFSNYAMSWVRQAPGKGLEWVATISSGGSHTYYLDSVKGRFTISRDNSKDTLYLQMNSLRAEDTALYYCARLFTGHAMKYWGQGTLVTVSS VL: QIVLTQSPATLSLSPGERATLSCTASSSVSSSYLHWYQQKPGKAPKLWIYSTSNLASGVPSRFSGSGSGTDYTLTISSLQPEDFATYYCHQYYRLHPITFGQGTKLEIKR"
test_readout = "log10 of koff"
quantitative_readout = -4.16

[[record]]
binder = "C1_IPN92H0156-SG4GK/IPN93L0024-SK1 (antibody, human IgG4 S228P, kappa, name in Kabat numbering, V domains shown, also called IPN92H0156/IPN93L0024) VH: EVMLVESGGGLVKPGGSLRLSCAASGFTFSNYAMSWVRQAPGKGLEWVATISSGGSHTKYLDSVKGRFTISRDNSKDTLYLQMNSLRAEDTALYYCARLFTGHAMDYWGQGTLVTVSS VL: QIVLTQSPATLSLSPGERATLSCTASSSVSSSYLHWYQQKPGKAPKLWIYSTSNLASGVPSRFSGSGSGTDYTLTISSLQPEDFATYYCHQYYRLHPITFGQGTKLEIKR"
test_readout = "log10 of koff"
quantitative_readout = -3.11

[[record]]
binder = "C1_IPN92H0282-SG4GK/IPN93L0091-SK1 (antibody, human IgG4 S228P, kappa, name in Kabat numbering, V domains shown, also called IPN92H0282/IPN93L0091) VH: EVMLVESGGGLVKPGGSLRLSCAASGFTFSNYAMSWVRQAPGKGLEWVATISSGGSHTYELDSVDERFTISRDNSKDTLYLQMNSLRAEDTALYYCARLFTKHAMDYWGQGTLVTVSS VL: QIVLTQSPATLSLSPGERATLSCTASSSVSSSRLHWYQQKPGKAPKLWIYSTSNLASGVPSRFSGSGSGTDYTLTISSLQPEDFATYYCHQYYRLHPITFGQGTKLEIKR"
test_readout = "log10 of koff"
quantitative_readout = -3.03

[[record]]
binder = "C1_IPN92H0261-SG4GK/IPN93L0091-SK1 (antibody, human IgG4 S228P, kappa, name in Kabat numbering, V domains shown, also called IPN92H0261/IPN93L0091) VH: EVMLVESGGGLVKPGGSLRLSCAASGFTFSNYAMSWVRQAPGKGLEWVATISSGGSHTYELDSVKGRFTISRDNSKDTLYLQMNSLRAEDTALYYCARLFTKHAMDYWGQGTLVTVSS VL: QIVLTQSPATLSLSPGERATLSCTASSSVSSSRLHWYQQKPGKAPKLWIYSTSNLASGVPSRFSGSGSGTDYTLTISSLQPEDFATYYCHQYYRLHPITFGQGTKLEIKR"
test_readout = "log10 of koff"
quantitative_readout = -3.11

[[record]]
binder = "C1_IPN92H0033-SG4GK/IPN93L0090-SK1 (antibody, human IgG4 S228P, kappa, name in Kabat numbering, V domains shown, also called IPN92H0033/IPN93L0090) VH: EVMLVESGGGLVKPGGSLRLSCAASGFTFSNYAMSWVRQAPGKGLEWVATISSGGSHTYYLDSVKGRFTISRDNSKDTLYLQMNSLRAEDTALYYCARLFTGHAMDYWGQGTLVTVSS VL: QIVLTQSPATLSLSPGERATLSCTASSSVSSSKLHWYQQKPGKAPKLWIYSTSNLASGVPSRFSGSGSGTDYTLTISSLQPEDFATYYCHQYYRLHPITFGQGTKLEIKR"
test_readout = "log10 of koff"
quantitative_readout = -3.17

[[record]]
binder = "C1_IPN92H0061-SG4GK/IPN93L0024-SK1 (antibody, human IgG4 S228P, kappa, name in Kabat numbering, V domains shown, also called IPN92H0061/IPN93L0024) VH: EVMLVESGGGLVKPGGSLRLSCAASGFTKSNYAMSWVRQAPGKGLEWVATISSGGSHTYYLDSVKGRFTISRDNSKDTLYLQMNSLRAEDTALYYCARLFTGHAMDYWGQGTLVTVSS VL: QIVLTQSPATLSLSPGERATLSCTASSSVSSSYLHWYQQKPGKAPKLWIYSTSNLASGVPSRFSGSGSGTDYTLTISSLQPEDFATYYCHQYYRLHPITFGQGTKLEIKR"
test_readout = "log10 of koff"
quantitative_readout = -2.79

[[record]]
binder = "C1_IPN92H0147-SG4GK/IPN93L0024-SK1 (antibody, human IgG4 S228P, kappa, name in Kabat numbering, V domains shown, also called IPN92H0147/IPN93L0024) VH: EVMLVESGGGLVKPGGSLRLSCAASGFTFSNYAMSWVRQAPGKGLEWVATISSGGSHDYYLDSVKGRFTISRDNSKDTLYLQMNSLRAEDTALYYCARLFTGHAMDYWGQGTLVTVSS VL: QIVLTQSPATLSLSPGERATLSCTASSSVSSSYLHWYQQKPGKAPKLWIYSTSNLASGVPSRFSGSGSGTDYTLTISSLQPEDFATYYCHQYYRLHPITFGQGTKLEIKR"
test_readout = "log10 of koff"
quantitative_readout = -3.12

[[record]]
binder = "C1_IPN92H0157-SG4GK/IPN93L0024-SK1 (antibody, human IgG4 S228P, kappa, name in Kabat numbering, V domains shown, also called IPN92H0157/IPN93L0024) VH: EVMLVESGGGLVKPGGSLRLSCAASGFTFSNYAMSWVRQAPGKGLEWVATISSGGSHTRYLDSVKGRFTISRDNSKDTLYLQMNSLRAEDTALYYCARLFTGHAMDYWGQGTLVTVSS VL: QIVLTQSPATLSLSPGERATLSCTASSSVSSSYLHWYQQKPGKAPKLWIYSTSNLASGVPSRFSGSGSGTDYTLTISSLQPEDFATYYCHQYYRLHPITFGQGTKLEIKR"
test_readout = "log10 of koff"
quantitative_readout = -3.16

[[record]]
binder = "C1_IPN92H0117-SG4GK/IPN93L0024-SK1 (antibody, human IgG4 S228P, kappa, name in Kabat numbering, V domains shown, also called IPN92H0117/IPN93L0024) VH: EVMLVESGGGLVKPGGSLRLSCAASGFTFSNYAMSWVRQAPGKGLEWVATISQGGSHTYYLDSVKGRFTISRDNSKDTLYLQMNSLRAEDTALYYCARLFTGHAMDYWGQGTLVTVSS VL: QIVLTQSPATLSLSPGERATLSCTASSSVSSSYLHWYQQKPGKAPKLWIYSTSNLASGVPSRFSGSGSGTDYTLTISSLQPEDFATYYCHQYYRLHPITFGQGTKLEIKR"
test_readout = "log10 of koff"
quantitative_readout = -3.06

